The reported measurements were obtained from paper PMC7609460.

Tested on: HCT116 (p53+/+) colon cancer cells
Assay: Resazurin reduction assay
Type: cell-based
Details: Homo sapiens, HCT-116, 72 h

- Molecule: "COc1cc(-c2cc(=O)c3c(O)cc(O[C@@H]4O[C@H](CO)[C@@H](O)[C@H](O)[C@H]4O)cc3o2)ccc1O [Compound 3, chrysoeriol-7-O-β-D-glucopyranoside]"
  Limit operator: "="
  IC50 (µM): 30.7
- Molecule: "O=c1cc(-c2ccc(O)cc2)oc2cc(O[C@@H]3O[C@H](CO)[C@@H](O)[C@H](O)[C@H]3O)cc(O)c12 [Compound 4, Apigenin-7-O-β-D-glucopyranoside]"
  Limit operator: ">"
  IC50 (µM): 100
- Molecule: "O=c1cc(-c2ccc(O)c(O)c2)oc2cc(O)cc(O)c12 [Compound 6, luteolin]"
  Limit operator: "="
  IC50 (µM): 28.3

* * *

Test system: CEM/ADR5000 leukemia cells (P-glycoprotein-overexpressing)
Experiment: Resazurin reduction assay
Type: cell-based
Settings: Homo sapiens, ADR5000, 72 h
pIC50: −log10 of the molar value.
Property name: pIC50

- Molecule: "O=c1cc(-c2ccc(O)cc2)oc2cc(O[C@@H]3O[C@H](CO)[C@@H](O)[C@H](O)[C@H]3O)cc(O)c12 [Compound 4, Apigenin-7-O-β-D-glucopyranoside]"
  Assay target: "CEM/ADR5000 leukemia cells (P-glycoprotein-overexpressing)"
  Limit operator: "<"
  Value measured: 4.00
- Molecule: "O=c1cc(-c2ccc(O)c(O)c2)oc2cc(O)cc(O)c12"
  Assay target: "CEM/ADR5000 leukemia cells (P-glycoprotein-overexpressing)"
  Limit operator: "="
  Value measured: 4.57
- Molecule: "COc1cc(-c2cc(=O)c3c(O)cc(O[C@@H]4O[C@H](CO)[C@@H](O)[C@H](O)[C@H]4O)cc3o2)ccc1O [Compound 3, chrysoeriol-7-O-β-D-glucopyranoside]"
  Assay target: "CEM/ADR5000 leukemia cells (P-glycoprotein-overexpressing)"
  Limit operator: "="
  Value measured: 4.73

* * *

Test system: HCT116 (p53-/-) colon adenocarcinoma cells
Assay: Resazurin reduction assay
Type: cell-based
Settings: Homo sapiens, HCT-116, 72 h
Property name: IC50 (µM)

- Compound: "O=c1cc(-c2ccc(O)c(O)c2)oc2cc(O)cc(O)c12"
  Property name: "IC50"
  Limit operator: "="
  Value measured: 30.4
- Compound: "COc1cc(-c2cc(=O)c3c(O)cc(O[C@@H]4O[C@H](CO)[C@@H](O)[C@H](O)[C@H]4O)cc3o2)ccc1O [Compound 3, chrysoeriol-7-O-β-D-glucopyranoside]"
  Property name: "IC50"
  Limit operator: "="
  Value measured: 28.4
- Compound: "COc1cccc2c1C(=O)c1c(O)c3c(c(O)c1C2=O)C[C@@](O)(C(=O)CO)C[C@@H]3O[C@H]1C[C@H](N)[C@H](O)[C@H](C)O1 [Doxorubicin, reference compound]"
  Property name: "IC50"
  Limit operator: "="
  Value measured: 1.78
- Compound: "O=c1cc(-c2ccc(O)cc2)oc2cc(O[C@@H]3O[C@H](CO)[C@@H](O)[C@H](O)[C@H]3O)cc(O)c12 [Compound 4, Apigenin-7-O-β-D-glucopyranoside]"
  Property name: "IC50"
  Limit operator: ">"
  Value measured: 100
